# System: SN12C renal
# PROTOCOL: NCI tumour cell line growth inhibition, 48 h
VALUE KIND: TGI

# COMPOUND, OBSERVED RESULT
rows = [
    ("CCN1CCC(O)(c2ccc(OC)cc2)C(C(=O)c2ccc(OC)cc2)C1 (stereo unspecified)", "42.5 µM"),
    ("CCOC(=O)Nc1ccc(C)c(NC(=O)OCC)c1", "> 100 µM"),
    ("Cc1cc(N(CCC#N)CCC#N)ccc1N=Nc1ccc(C(=O)O)cc1", "> 100 µM"),
    ("N#Cc1c(N)n(-c2cccc(C(=O)O)c2)c(=O)c2cc([N+](=O)[O-])ccc12", "> 100 µM"),
    ("CN(C)CCCN1CCC2(CCC(C(C)(C)C)CC2)CC1", "20.6 µM"),
    ("O=C(O)[C@@H]1CCS(=O)(=O)N1", "> 100 µM"),
    ("Cc1c2c(C#N)nccc2c(C)c2c1c1ccccc1n2Cc1ccccc1", "> 100 µM"),
    ("COc1ccc(C(=O)/C=C/c2cc(-c3cc(OC)c(OC)c(OC)c3)n[nH]2)cc1OC", "3.13 µM"),
    ("COc1cc(-c2cc(-c3cc4c([nH]c5ccccc54)c(-c4cc(OC)c(OC)c(OC)c4)n3)cc(-c3ccccc3)n2)cc(OC)c1OC", "> 100 µM"),
    ("S=c1sc2c(Cl)nc(Cl)nc2n1-c1ccccc1", "> 100 µM"),
    ("O=C(Nc1nc(=S)c2c(ncn2CCOC(=O)c2ccccc2)[nH]1)c1ccccc1", "> 100 µM"),
]

* * *

# System: OVCAR-8 ovarian
# PROTOCOL: NCI tumour cell line growth inhibition, 48 h

# COMPOUND, TARGET SYSTEM, TGI
rows = [
    ("[N-]=[N+]=N[C@H]1C[C@@H](CO)O[C@H]1n1cnc2c(N)ncnc21", "OVCAR-8 ovarian", "> 100 µM"),
    ("CCC(C)OC(=O)/C(Br)=C1/OC(=O)c2ccccc2-c2ccccc21 (stereo not given)", "OVCAR-8 ovarian", "> 100 µM"),
    ("CC(C)(C)c1ccc(O)c(C(O)c2ccncc2)c1 (stereo not given)", "OVCAR-8 ovarian", "> 100 µM"),
    ("O=C(O)CCC(NC(=O)c1ccc(Nc2nc3cc(C(F)(F)F)ccc3nc2-c2ccccc2)cc1)C(=O)O (stereo not given)", "OVCAR-8 ovarian", "> 100 µM"),
    ("CN1C2CCC1CC(=CCOC(c1ccc(F)cc1)c1ccc(F)cc1)C2", "OVCAR-8 ovarian", "32 µM"),
    ("CC12CP(=O)(c3ccccc3)CC1C2(Cl)Cl (stereo not given)", "OVCAR-8 ovarian", "> 100 µM"),
    ("CC(=O)OC12C=CC(=O)N1c1ccccc1C(=O)O2 (stereo not given)", "OVCAR-8 ovarian", "> 100 µM"),
    ("O=C(O)Cc1cc(Cl)ccc1O", "OVCAR-8 ovarian", "> 100 µM"),
    ("CC(=O)Oc1c2c(c(O)c3ccccc13)C(n1cnc3c(ncn3C3OC(CO)C4OC(C)(C)OC43)c1=N)CCC2 (stereo not given)", "OVCAR-8 ovarian", "23.9 µM"),
    ("CC(=O)c1[nH]c(NCc2ccccc2)c(C(=S)Nc2ccccc2)c1N", "OVCAR-8 ovarian", "39.2 µM"),
    ("CN(C)CCCN1CCC2(CCC(C(C)(C)C)CC2)CC1", "OVCAR-8 ovarian", "16.5 µM"),
    ("Cc1nn(-c2ccccc2)c2c1C(c1ccc(Cl)cc1)NC(=S)N2 (stereo not given)", "OVCAR-8 ovarian", "43.3 µM"),
    ("COc1ccc(-[n+]2nc(S(=O)(=O)O)c(/C=C/c3ccc(N(C)C)cc3)cc2C#N)cc1", "OVCAR-8 ovarian", "> 100 µM"),
    ("Cc1cc(N(CCC#N)CCC#N)ccc1N=Nc1ccc(C(=O)O)cc1", "OVCAR-8 ovarian", "> 100 µM"),
    ("Clc1ccc2[nH]cc(-c3nnnn3-c3ccccc3)c2c1", "OVCAR-8 ovarian", "> 93.3 µM"),
    ("Nc1nc(/C=C\\c2ccc([N+](=O)[O-])s2)nc(N2CCCC2)n1", "OVCAR-8 ovarian", "22.5 µM"),
    ("O=C1/C(=C/c2ccc(Cl)cc2)CCC1CCN1CCOCC1 (stereo not given)", "OVCAR-8 ovarian", "> 100 µM"),
    ("O=C1Nc2ccccc2/C1=N\\[O-].O=C1Nc2ccccc2/C1=N\\[O-].[Cu+2]", "OVCAR-8 ovarian", "> 100 µM"),
    ("Fc1cc(-c2cc(-c3ccccc3)no2)c(Cl)cc1Cl", "OVCAR-8 ovarian", "> 40.8 µM"),
    ("O=c1ccn([C@H]2CSC[C@@H](CO)C2)c(=O)[nH]1", "OVCAR-8 ovarian", "> 100 µM"),
    ("CC1CCC(C(C)C)C(OC(=O)NCn2cc(-c3ccccc3)nn2)C1 (stereo not given)", "OVCAR-8 ovarian", "> 100 µM"),
    ("O=C1/C(=C/c2ccc3c(c2)OCO3)SC2C=Nc3ccccc3N12 (stereo not given)", "OVCAR-8 ovarian", "> 100 µM"),
    ("C#C[C@]1(O)CCC2C3CCc4cc(O)ccc4C3CC[C@@]21C (stereo not given in full)", "OVCAR-8 ovarian", "37.2 µM"),
    ("CCCc1nc(NC#N)nc(C(=O)Nc2ccccc2)c1CC", "OVCAR-8 ovarian", "> 100 µM"),
    ("CC(C)=CC[C@]12CCN[C@H]1N(S(=O)(=O)c1ccccc1)c1ccccc12", "OVCAR-8 ovarian", "33.9 µM"),
    ("O=[N+]([O-])c1ccc2c(c1)C1=C(CO2)Cc2ccccc2O1", "OVCAR-8 ovarian", "> 100 µM"),
    ("O=C(/C=C/c1cc2ccccc2o1)N1CCN(c2ccccn2)CC1", "OVCAR-8 ovarian", "> 100 µM"),
    ("COc1cc(F)ccc1-c1ncnc(Nc2cccc(CS(C)(=N)=O)c2)n1 (stereo not given)", "OVCAR-8 ovarian", "> 100 µM"),
    ("CC1(C)N=C(N)N=C(N)N1c1ccc(CCc2ccccc2)cc1", "OVCAR-8 ovarian", "> 100 µM"),
    ("N#Cc1c(-c2ccc(Cl)cc2Cl)nc2[nH][nH]c(=S)n2c1=O", "OVCAR-8 ovarian", "> 100 µM"),
    ("C[C@H](CCC(=O)O)[C@H]1CC[C@H]2[C@@H]3CC[C@@H]4C[C@H](O)CC[C@]4(C)[C@H]3C[C@H](O)[C@]12C", "OVCAR-8 ovarian", "> 100 µM"),
    ("O=C(Nc1nc(=S)c2c(ncn2CCOC(=O)c2ccccc2)[nH]1)c1ccccc1", "OVCAR-8 ovarian", "> 100 µM"),
    ("c1ccc(CCNc2ccccn2)nc1", "OVCAR-8 ovarian", "> 100 µM"),
    ("NC(=O)C12CC3CC(CC(F)(C3)C1)C2", "OVCAR-8 ovarian", "> 100 µM"),
    ("CCOC(=O)CC[C@H](NC(=O)[C@H](N)Cc1ccc(N(CCCl)CCCl)cc1)C(=O)OCC", "OVCAR-8 ovarian", "> 52.8 µM"),
    ("CCOc1ccc(NC(=O)C(=O)CC(=O)c2c(C)n([O-])c3ccccc3[n+]2=O)cc1", "OVCAR-8 ovarian", "> 100 µM"),
    ("CCC[CH2][Sn]([Cl])([CH2]CCC)[CH2]CCC", "OVCAR-8 ovarian", "0.287 µM"),
    ("Cc1[nH]c2ccccc2c1C(=O)/C=C/c1ccccc1O", "OVCAR-8 ovarian", "> 100 µM"),
    ("N#C/C1=C(\\N)CCSSSC1", "OVCAR-8 ovarian", "43.2 µM"),
    ("Oc1[nH]c2ccccc2c1N=NC(=S)Nc1cccc(Cl)c1", "OVCAR-8 ovarian", "35.7 µM"),
    ("CSc1ncnc2c1ncn2CCC(=O)OC(C)(C)C", "OVCAR-8 ovarian", "> 100 µM"),
    ("CN(CC(=O)O)c1ncc2c(n1)CCCC2", "OVCAR-8 ovarian", "> 100 µM"),
    ("C/C=C(/C)C(=O)O[C@@H]1CCN2CC[C@H](COC(=O)/C(=C/C)CO)C12 (stereo not given in full)", "OVCAR-8 ovarian", "> 100 µM"),
    ("CCOc1ccc(NC(=O)CC#N)cc1", "OVCAR-8 ovarian", "> 100 µM"),
    ("Cn1c(=O)c2c(nc(Cc3ccccc3)n2CC(=O)O)n(C)c1=O", "OVCAR-8 ovarian", "> 100 µM"),
]
